Origin of the recorded values: patent US10501734B2

System: tRNA
Experiment: Aminoacylation assay (tRNA charging)
Format: biochemical
Conditions: nsAA pAzF
Endpoint: Km (µM)
// return numeric value only (unit: µM, not printed)

In plain terms, pAcFRS.1.t1: pAcFRS variant A167D, R257G, SEQ ID NO: 5 (protein) MDEFEMIKRNTSEIISEEELREVLKKDEKSALIGFEPSGKIHLGHYLQIKKMIDLQNAGFDIIILLADLHAYLNQKGELDEIRKIGDYNKKVFEAMGLKAKYVYGSEFQLDKDYTLNVYRLALKTTLKRARRSMELIAREDENPKVAEVIYPIMQVNGCHYRGVDVDVGGMEQRKIHMLARELLPKKVVCIHNPVLTGLDGEGKMSSSKGNFIAVDDSPEEIRAKIKKAYCPAGVVEGNPIMEIAKYFLEYPLTIKGPEKFGGDLTVNSYEELESLFKNKELHPMRLKNAVAEELIKILEPIRKRL has a documented Km of 16
